Data credit: patent US20180326085A1

Target: T1, EGFR (soluble extracellular domain) (human, UniProt P00533)
T1 construct: soluble extracellular domain; also called Human EGFR extracellular domain, R&D Systems 1095-ER
Assay: BLI (Octet), antibody on anti-human Fc biosensors, soluble EGFR ECD as analyte
# binarize kon: threshold 600000 M⁻¹ s⁻¹ inclusive, high side true (1), low side false (0)

binder	label
matuzumab (425) (antibody, V domains shown) VH: QVQLVQSGAEVKKPGASVKVSCKASGYTFTSHWMHWVRQAPGQGLEWIGEFNPSNGRTNYNEKFKSKATMTVDTSTNTAYMELSSLRSEDTAVYYCASRDYDYDGRYFDYWGQGTLVTVSS VL: DIQMTQSPSSLSASVGDRVTITCSASSSVTYMYWYQQKPGKAPKLLIYDTSNLASGVPSRFSGSGSGTDYTFTISSLQPEDIATYYCQQWSSHIFTFGQGTKVEIKG	true (1)

(Q) Please check the record oa 425 (antibody, V domains shown, one-armed (monovalent) anti-EGFR SEED molecule) VH: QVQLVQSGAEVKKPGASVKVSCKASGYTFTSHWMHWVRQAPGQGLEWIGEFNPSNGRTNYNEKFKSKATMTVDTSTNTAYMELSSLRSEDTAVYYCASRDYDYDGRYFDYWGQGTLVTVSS VL: DIQMTQSPSSLSASVGDRVTITCSASSSVTYMYWYQQKPGKAPKLLIYDTSNLASGVPSRFSGSGSGTDYTFTISSLQPEDIATYYCQQWSSHIFTFGQGTKVEIKR and state if its kon is at or above 600000 M⁻¹ s⁻¹.
(A) false (0)

(Q) Please check the record oa225-M (antibody, V domains shown, one-armed (monovalent) anti-EGFR SEED molecule) VH: EVQLVQSGAEVKKPGASVKVSCKASGFSLTNYGVHWMRQAPGQGLEWIGVIWSGGNTDYNTPFTSRVTITSDKSTSTAYMELSSLRSEDTAVYYCARALTYYDYEFAYWGQGTLVTVSS VL: DIQMTQSPSSLSASVGDRVTITCRASQSIGTNIHWYQQKPGKAPKLLIKYASESISGVPSRFSGSGYGTDFTLTISSLQPEDVATYYCQQNYNWPTTFGQGTKVEIK and state if its kon is at or above 600000 M⁻¹ s⁻¹.
(A) true (1)

(Q) Please check the record oa 225-H (antibody, V domains shown, one-armed (monovalent) anti-EGFR SEED molecule) VH: EVQLVQSGAEVKKPGASVKVSCKASGFSLTNYGVHWMRQAPGQGLEWIGVIWSGGNTDYNTPFTSRVTITSDKSTSTAYMELSSLRSEDTAVYYCARALDYYDYEFAYWGQGTLVTVSS VL: DIQMTQSPSSLSASVGDRVTITCRASQSIGTNIHWYQQKPGKAPKLLIKYASESISGVPSRFSGSGYGTDFTLTISSLQPEDVATYYCQQNNEWPNTFGQGTKVEIK and state if its kon is at or above 600000 M⁻¹ s⁻¹.
(A) true (1)
